Molecular target: Nef interaction with CD80 (Human immunodeficiency virus type 1 group M subtype B)
Assay: ELISA primary screen: Nef binding to CD80 cytosolic peptide
Settings: CD80 pIC50 value, inhibition of Nef-CD80 binding
TEST READOUT: IC50 (nM)

| MOLECULE | READOUT NUMBER |
| --- | --- |
| CCCOC(=O)c1ccc(NC(=O)COc2cccc(C)c2)cc1 | 2.34 |
| Cc1ccc(S(=O)(=O)NNC(=O)c2ccccc2OC(=O)Nc2ccccc2)cc1 | 0.0871 |
| Cc1cc(C)cc(OCC(=O)Nc2ccc(C(=O)O)c(O)c2)c1 | 0.00447 |
| O=C(Oc1ccccc1)n1c(=S)oc2ccccc21 | 0.0912 |
| CCOC(=O)c1ccc(NC(=O)C(C)(C)Oc2ccc(Cl)cc2)cc1 | 1.51 |
| O=C(Nc1ccc(Cl)c(Cl)c1)Nc1cc([N+](=O)[O-])ccc1OC(=O)Nc1ccc(Cl)c(Cl)c1 | 0.0275 |
| CC(Oc1ccccc1)C(=O)Nc1ccc(C(=O)O)cc1 (stereo not drawn) | 1.12 |
| Cc1cc(C)n(-c2ncc(-c3ccc([N+](=O)[O-])cc3)cn2)n1 | 0.00234 |
| O=C(Oc1cccc(-c2nnco2)c1)N(c1ccccc1)c1ccccc1 | 0.00275 |
| FC(F)(F)c1ccc(-c2cnc(N3CCOCC3)nc2)cc1 | 0.129 |
| CN(C)c1ncc(-c2ccccc2)cn1 | 0.011 |
| Cc1ccc(OC(=O)Nc2ccc(Cc3ccc(NC(=O)Oc4ccc(C)cc4)cc3)cc2)cc1 | 10.5 |

Cited source: patent US20220062281A1
